assay: Binding affinity to HIV1 capsid protein hexamer assessed as dissociation constant by SPR analysis; set-up: species or system Human immunodeficiency virus 1

[
  {
    "Line notation": "COc1ccc(N(C)C(=O)[C@H](Cc2ccccc2)NC(=O)c2cccc(S(=O)(=O)N3CCc4cc(N)ccc43)c2)cc1",
    "Kd": "4.21 µM"
  },
  {
    "Line notation": "COc1ccc(N(C)C(=O)CS(=O)(=O)N[C@@H](Cc2ccccc2)C(=O)N(C)c2ccc(OC)cc2)cc1",
    "Kd": "4.82 µM"
  }
]

====

Attribute: CC50
system: MT4; experiment: Cytotoxicity against human MT4 cells assessed as reduction in cell viability incubated for 3 days by XTT assay; assay type: cell-based; settings: mt4, 72 h, time 3 day

[
  {
    "Line notation": "COc1ccc(N(C)C(=O)CS(=O)(=O)N[C@@H](Cc2ccccc2)C(=O)N(C)c2ccc(OC)cc2)cc1",
    "CC50": "> 9.51 µM"
  },
  {
    "Line notation": "COc1ccc(N(C)C(=O)[C@H](Cc2ccccc2)NC(=O)c2cccc(NS(=O)(=O)c3cc(F)cc(F)c3)c2)cc1",
    "CC50": "> 8.63 µM"
  },
  {
    "Line notation": "COc1ccc(N(C)C(=O)[C@H](Cc2ccccc2)NS(=O)(=O)CC(=O)Nc2cc(F)cc(F)c2)cc1",
    "CC50": "> 9.66 µM"
  },
  {
    "Line notation": "COc1ccc(N(C)C(=O)c2cccc(S(=O)(=O)N[C@@H](Cc3ccccc3)C(=O)N(C)c3ccc(OC)cc3)c2)cc1",
    "CC50": "> 8.51 µM"
  },
  {
    "Line notation": "COc1ccc(N(C)C(=O)[C@H](Cc2ccccc2)NS(=O)(=O)CC(=O)N2CCc3cc(OC)ccc32)cc1",
    "CC50": "> 9.3 µM"
  },
  {
    "Line notation": "COc1ccc(N(C)C(=O)[C@H](Cc2ccccc2)NC(=O)C(=O)N2CCc3cc(OC)ccc32)cc1",
    "CC50": "> 10.3 µM"
  },
  {
    "Line notation": "COc1ccc(N(C)C(=O)[C@H](Cc2ccccc2)NC(=O)C(=O)Nc2cc(F)cc(F)c2)cc1",
    "CC50": "> 8.81 µM"
  },
  {
    "Line notation": "COc1ccc(N(C)C(=O)[C@H](Cc2ccccc2)NC(=O)c2cccc(S(=O)(=O)N3CCc4cc(N)ccc43)c2)cc1",
    "CC50": "> 8.55 µM"
  },
  {
    "Line notation": "COc1ccc(N(C)C(=O)[C@H](Cc2ccccc2)NC(=O)c2cccc(NS(=O)(=O)c3ccc(OC(F)(F)F)cc3)c2)cc1",
    "CC50": "> 7.97 µM"
  },
  {
    "Line notation": "COc1ccc(N(C)C(=O)[C@H](Cc2ccccc2)NC(=O)C(=O)Nc2ccc(C#N)cc2)cc1",
    "CC50": "> 11 µM"
  },
  {
    "Line notation": "COc1ccc(N(C)C(=O)[C@H](Cc2ccccc2)NC(=O)c2cccc(S(=O)(=O)N3CCc4cc([N+](=O)[O-])ccc43)c2)cc1",
    "CC50": "> 8.13 µM"
  },
  {
    "Line notation": "COc1ccc(N(C)C(=O)[C@H](Cc2ccccc2)NS(=O)(=O)c2cccc(C(=O)N3CCOCC3)c2)cc1",
    "CC50": "> 9.3 µM"
  }
]
